The reported numbers originate from ChEMBL document CHEMBL4402603.

# STUDY SYSTEM: UniProt O43791
# Sequence (O43791 whole entry, the tested form may be a part): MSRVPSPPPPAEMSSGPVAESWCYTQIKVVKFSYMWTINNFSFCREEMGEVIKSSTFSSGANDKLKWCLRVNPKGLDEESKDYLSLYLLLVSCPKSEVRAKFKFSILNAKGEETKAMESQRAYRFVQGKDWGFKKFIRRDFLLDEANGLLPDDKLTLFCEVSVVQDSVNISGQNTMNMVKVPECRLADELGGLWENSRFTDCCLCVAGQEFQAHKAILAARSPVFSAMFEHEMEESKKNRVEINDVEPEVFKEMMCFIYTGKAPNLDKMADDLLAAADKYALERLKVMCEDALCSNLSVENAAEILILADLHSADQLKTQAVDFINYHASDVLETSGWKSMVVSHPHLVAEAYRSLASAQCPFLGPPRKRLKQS
# EXPERIMENT DESCRIPTION: Binding affinity to recombinant N-terminal GST/His-tagged MATH binding domain SPOP (unknown origin) expressed in Escherichia coli BL21 (DE3) assessed as change in melting temperature at 10 fold compound incubated for 15 mins by nano differential scanning fluorimetry (reference value: -1.7 degreeC)
READOUT TYPE: ΔTm (°C)

INSERT INTO results (smiles_structure, readout_type, assay_value) VALUES
  ('Cc1ccc(CCn2c(=N)c(C(=O)NCCCN3CCOCC3)cc3c(=O)n4cccc(C)c4nc32)cc1', 'ΔTm', 1.8),
  ('Cc1cccn2c(=O)c3cc(C(=O)NCCN4CCN(C)CC4)c(=N)n(CCc4cccs4)c3nc12', 'ΔTm', 3.1),
  ('CCOC(=O)c1cc2c(=O)n3cccc(C)c3nc2n(CCc2ccc(Cl)cc2)c1=N', 'ΔTm', 0.8),
  ('Cc1cccn2c(=O)c3cc(C(=O)NCCCc4ccccc4)c(=N)n(CCc4cccs4)c3nc12', 'ΔTm', 2.8),
  ('Cc1cccn2c(=O)c3cc(C(=O)NCCN4CCOCC4)c(=N)n(CCc4cccs4)c3nc12', 'ΔTm', 3.1);
